molecular target: Human recombinant PTP1B (Homo sapiens); construct: made in house; format: biochemical; settings: read-out: IC50
In this scheme, each record receives a class according to its IC50; the ranges are L (below 80 nM), M (80 nM to below 400 nM), H (400 nM or more)

1. O=C(O)[C@H](CCc1ccccc1)Oc1c(Br)cc(-c2c3ccccc3c(Br)c3sc4ccccc4c23)cc1Br [Example 118]    L
2. O=C(O)[C@@H](Cc1ccccc1)Oc1c(Br)cc(-c2c3ccccc3c(Sc3ccccc3)c3sc4ccccc4c23)cc1Br [Example 128]    L
3. O=C(O)COc1c(Br)cc(-c2c3ccccc3c(Br)c3sc4ccccc4c23)cc1Br [Example 79]    M
4. O=C(O)[C@@H](CCN1C(=O)c2ccccc2C1=O)Oc1c(Br)cc(-c2c3ccccc3cc3sc4ccccc4c23)cc1Br [Example 146]    L
5. Cc1c2ccccc2c(-c2cc(Br)c(O)c(Br)c2)c2c1sc1ccccc12 [Example 62]    H
6. COc1cc(-c2c3ccccc3c(Br)c3sc4ccccc4c23)cc(Br)c1O[C@H](Cc1ccccc1)C(=O)O [Example 194]    M
7. O=C(O)[C@@H](CCN1C(=O)c2ccccc2C1=O)Oc1ccc(-c2c3ccccc3cc3sc4ccccc4c23)cc1 [Example 148]    H
8. O=C(O)[C@@H](CCN1Cc2ccccc2C1=O)Oc1c(Br)cc(-c2c3ccccc3c(Br)c3sc4ccccc4c23)cc1Br [Example 124]    M
9. O=C(O)CCOc1c(Br)cc(-c2c3ccccc3c(Br)c3sc4ccccc4c23)cc1Br [Example 179]    M
10. Brc1cc(-c2c3ccccc3c(Br)c3sc4ccccc4c23)cc(Br)c1O[C@H](Cc1ccccc1)c1nnn[nH]1 [Example 172]    L
11. Brc1cc(-c2c3ccccc3c(Br)c3sc4ccccc4c23)cc(Br)c1OCc1nnn[nH]1 [Example 171]    M
12. Oc1c(Br)cc(-c2c3ccccc3c(Br)c3oc4ccccc4c23)cc1Br [Example 210]    H
13. Oc1c(Br)cc(-c2c3ccccc3c(Cl)c3sc4ccccc4c23)cc1Br [Example 60]    M

---

Target: Human recombinant PTP1B (Homo sapiens, UniProt P18031)
Construct: made in house
Sequence (P18031 1-435): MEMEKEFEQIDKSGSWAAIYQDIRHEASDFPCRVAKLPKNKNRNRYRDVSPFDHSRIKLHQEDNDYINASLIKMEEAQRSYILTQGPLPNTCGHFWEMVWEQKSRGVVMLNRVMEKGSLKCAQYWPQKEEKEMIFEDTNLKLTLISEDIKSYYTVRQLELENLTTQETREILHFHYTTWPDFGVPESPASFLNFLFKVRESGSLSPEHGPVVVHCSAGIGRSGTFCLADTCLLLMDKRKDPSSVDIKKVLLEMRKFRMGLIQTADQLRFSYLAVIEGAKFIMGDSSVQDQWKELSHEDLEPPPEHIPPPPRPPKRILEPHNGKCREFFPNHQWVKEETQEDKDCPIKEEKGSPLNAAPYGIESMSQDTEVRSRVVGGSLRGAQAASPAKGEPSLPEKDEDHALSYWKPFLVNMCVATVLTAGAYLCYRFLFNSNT
Type: biochemical
Conditions: read-out: IC50
readoutName: log10 of IC50 (log10 of the value in nM)

1. N#Cc1cc(-c2c3ccccc3cc3sc4ccccc4c23)ccc1OCC(=O)O [Example 82]    3.30
2. CN(C)CCSc1c2ccccc2c(-c2cc(Br)c(O[C@H](Cc3ccccc3)C(=O)O)c(Br)c2)c2c1sc1ccccc12 [Example 133]    2.70
3. Oc1cc(Br)c(-c2c3ccccc3c(Br)c3sc4ccccc4c23)cc1O [Example 71]    1.90
4. C[C@@H](Oc1cc(-c2c3ccccc3c(Br)c3sc4ccccc4c23)ccc1Br)C(=O)O [Example 144]    3.05
5. N#Cc1c2ccccc2c(-c2cc(Br)c(O)c(Br)c2)c2c1sc1ccccc12 [Example 58]    3.00
6. N#Cc1cc(-c2c3ccccc3cc3sc4ccccc4c23)cc(C#N)c1OCC(=O)O [Example 81]    3.30
7. O=C(O)C(Cc1ccc(F)cc1)Oc1c(Br)cc(-c2c3ccccc3c(Br)c3sc4ccccc4c23)cc1Br (stereo not shown) [Example 155]    1.75
8. Oc1c(-c2ccccc2)cc(-c2c3ccccc3cc3sc4ccccc4c23)cc1-c1ccccc1 [Example 190]    3.30
9. COc1c(Br)cc(-c2c3ccccc3c(Br)c3sc4ccccc4c23)cc1O[C@H](Cc1ccccc1)C(=O)O [Example 196]    2.24
10. Oc1c(Br)cc(-c2c3ccccc3c(I)c3sc4ccccc4c23)cc1Br [Example 59]    2.79
11. O=C(O)COc1c(Br)cc(-c2c3ccccc3c(Br)c3oc4ccccc4c23)cc1Br [Example 215]    2.69
12. Oc1cc(-c2c3ccccc3c(Br)c3sc4ccccc4c23)ccc1Br [Example 68]    3.01
13. C[C@@H](Oc1c(Br)cc(-c2c3ccccc3c(I)c3sc4ccccc4c23)cc1Br)C(=O)O [Example 135]    2.32
14. O=C(O)[C@@H](Cc1ccccc1)Oc1c(Br)cc(-c2c3ccccc3c(Cl)c3sc4ccccc4c23)cc1Br [Example 127]    1.81
15. O=C(O)COc1cc(-c2c3ccccc3c(Br)c3sc4ccccc4c23)ccc1Br [Example 91]    3.11
16. CC(C)c1cc(-c2c3ccccc3c(Br)c3sc4ccccc4c23)cc(C(C)C)c1O [Example 40]    3.04

---

Target: Human recombinant PTP1B (Homo sapiens)
Construct: made in house
Sequence (P18031 1-435): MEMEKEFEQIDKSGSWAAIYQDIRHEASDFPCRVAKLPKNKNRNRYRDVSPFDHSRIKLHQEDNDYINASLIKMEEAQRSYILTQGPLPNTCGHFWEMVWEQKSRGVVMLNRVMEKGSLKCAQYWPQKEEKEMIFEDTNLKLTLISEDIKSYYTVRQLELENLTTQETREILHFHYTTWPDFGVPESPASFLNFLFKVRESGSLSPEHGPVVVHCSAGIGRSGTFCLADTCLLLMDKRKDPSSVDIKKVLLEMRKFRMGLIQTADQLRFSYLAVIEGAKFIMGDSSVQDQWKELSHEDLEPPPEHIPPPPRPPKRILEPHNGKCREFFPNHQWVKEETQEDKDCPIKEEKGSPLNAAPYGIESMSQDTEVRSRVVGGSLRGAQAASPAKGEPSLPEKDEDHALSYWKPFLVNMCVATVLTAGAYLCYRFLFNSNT
Assay type: biochemical
Settings: read-out: IC50
readoutName: IC50 (nM)

1) NC(=O)[C@@H](Cc1ccccc1)Oc1c(Br)cc(-c2c3ccccc3c(Br)c3sc4ccccc4c23)cc1Br    565
2) O=C(O)[C@@H](Cc1ccccc1)Oc1c(Br)cc(-c2c3ccccc3c(Sc3ccncc3)c3sc4ccccc4c23)cc1Br    93
3) CC(C)c1cc(-c2c3ccccc3c(Br)c3sc4ccccc4c23)cc(C(C)C)c1O[C@H](Cc1ccccc1)C(=O)O    61
4) N#Cc1c2ccccc2c(-c2ccc(O[C@H](Cc3ccccc3)C(=O)O)cc2)c2c1sc1ccccc12    765
5) Oc1cccc(-c2c3ccccc3c(Br)c3sc4ccccc4c23)c1    1500
6) C[C@@H](Oc1c(Br)cc(-c2c3ccccc3c(Br)c3sc4ccccc4c23)cc1Br)C(=O)O    184
7) N#CCCNC(=O)[C@@H](Cc1ccccc1)Oc1c(Br)cc(-c2c3ccccc3c(Br)c3sc4ccccc4c23)cc1Br    994

---

test system: rat hepatic microsomal PTPases; details: PTPase activity, compound at 50 μM
Entry flag: TRUE if % Change from Control reaches -80%; FALSE if it does not.

1) O=C(NO)[C@@H](Cc1ccccc1)Oc1c(Br)cc(-c2c3ccccc3c(Br)c3sc4ccccc4c23)cc1Br [Example 167]    TRUE
2) O=C(O)[C@H](Oc1c(Br)cc(-c2c3ccccc3c(Br)c3sc4ccccc4c23)cc1Br)c1ccccc1 [Example 142]    FALSE
3) COc1c(C)cc(-c2c3ccccc3c(C)c3sc4ccccc4c23)cc1C [Example 24]    TRUE
4) O=C(O)CCOc1c(Br)cc(-c2c3ccccc3c(Br)c3sc4ccccc4c23)cc1Br [Example 179]    TRUE
5) C[C@@H](Oc1c(I)cc(-c2c3ccccc3cc3sc4ccccc4c23)cc1I)C(=O)O [Example 132]    TRUE
6) O=C(O)[C@@H](CCN1C(=O)c2ccccc2C1=O)Oc1ccc(-c2c3ccccc3cc3sc4ccccc4c23)cc1 [Example 148]    FALSE
7) N#Cc1c2ccccc2c(-c2cc(Br)c(O[C@@H](Cc3ccccc3)C(=O)O)c(Br)c2)c2c1sc1ccccc12 [Example 115]    TRUE

---

test system: rat hepatic microsomal PTPases; conditions: PTPase activity, compound at 50 μM
Reported % Change from Control values for a set of compounds
readoutName: % Change from Control (%)

1. Oc1c(Br)cc(-c2c3ccccc3c(Br)c3oc4ccccc4c23)c(O)c1Br    -36.82
2. O=P(O)(O)COc1ccc(-c2c3ccccc3cc3sc4ccccc4c23)cc1    -38.40
3. CC(=O)Oc1ccc(-c2c3ccccc3c(Br)c3sc4ccccc4c23)cc1    -3.02
4. O=P(O)(O)C(CCc1ccccc1)Oc1c(Br)cc(-c2c3ccccc3c(Br)c3sc4ccccc4c23)cc1Br (centres unmarked)    -70.32
5. O=C(O)[C@@H](Cc1ccccc1)Oc1c(Br)cc(-c2c3ccccc3c(Sc3ccncc3)c3sc4ccccc4c23)cc1Br    -69.86
6. BrC[C@@H](Cc1ccccc1)Oc1c(Br)cc(-c2c3ccccc3c(Br)c3sc4ccccc4c23)cc1Br    0.39
7. Cc1c2ccccc2c(-c2cc(Br)c(O[C@H](Cc3ccccc3)C(=O)O)c(Br)c2)c2c1sc1ccccc12    -76.58
8. COC(=O)[C@H](Cc1ccccc1)Oc1c(Br)cc(-c2c3ccccc3c(Br)c3sc4ccccc4c23)cc1Br    -12.78
9. Oc1ccc(-c2c3ccccc3cc3sc4ccccc4c23)cc1I    -35.78
10. Cc1cc(-c2c3ccccc3c(C)c3sc4ccccc4c23)cc(C)c1OCC(=O)O    -69.35
11. O=C(O)COc1c(I)cc(-c2c3ccccc3cc3sc4ccccc4c23)cc1I    -57.89
12. O=C(O)[C@@H](Cc1ccccc1)Oc1c(Br)cc(-c2c3ccccc3c(Br)c3oc4ccccc4c23)cc1Br    -60.67
13. O=C(O)COc1c(Br)cc(-c2c3ccccc3c(Br)c3sc4ccccc4c23)cc1Br    -82.58
14. O=C(O)COc1c(Br)cc(-c2c3ccccc3c(Br)c3oc4ccccc4c23)cc1Br    -80.93
15. Oc1ccc(-c2c3ccccc3c(Br)c3sc4ccccc4c23)cc1    -39.32
16. O=C(O)COc1cccc(-c2c3ccccc3c(Br)c3sc4ccccc4c23)c1    -79.04
17. O=C(O)COc1ccc(-c2c3ccccc3cc3sc4cc(OCC(=O)O)ccc4c23)cc1    -21.61
18. COc1ccc(C(=O)c2c(Cc3ccccc3)sc3ccccc23)cc1    1.03
19. O=C(O)[C@@H](CCN1C(=O)c2ccccc2C1=O)Oc1ccc(-c2c3ccccc3c(Br)c3sc4ccccc4c23)cc1    -92.46
20. Oc1ccc(-c2c3ccc(O)cc3cc3sc4ccccc4c23)cc1    -26.86
21. Oc1c(I)cc(-c2c3ccccc3cc3sc4ccccc4c23)cc1I    -8.68
22. O=C(O)COc1c(F)ccc(-c2c3ccccc3c(Br)c3sc4ccccc4c23)c1F    -75.75
23. O=C(O)COc1ccc2c(c1)sc1cc3ccccc3c(-c3ccc(O[C@H](CCN4C(=O)c5ccccc5C4=O)C(=O)O)cc3)c12    -59.82
24. Oc1cc(-c2c3ccccc3c(Br)c3sc4ccccc4c23)ccc1Br    -26.32
25. O=C(O)COc1cc(-c2c3ccccc3c(Br)c3sc4ccccc4c23)ccc1Br    -97.10
26. CCCCC(Oc1c(Br)cc(-c2c3ccccc3c(Br)c3sc4ccccc4c23)cc1Br)C(=O)O (centres unmarked)    -87.44
27. N#Cc1c2ccccc2c(-c2cc(Br)c(OCC(=O)O)c(Br)c2)c2c1sc1ccccc12    -67.03
28. O=C(O)COc1c(Br)cc(-c2c3ccccc3c(Br)c3oc4ccccc4c23)c(O)c1Br    -80.42
29. CN(C)CCSc1c2ccccc2c(-c2cc(Br)c(O[C@H](Cc3ccccc3)C(=O)O)c(Br)c2)c2c1sc1ccccc12    -27.89
30. O=P(O)(O)COc1c(Br)cc(-c2c3ccccc3c(Br)c3sc4ccccc4c23)cc1Br    -60.67
31. CC(C)c1cc(-c2c3ccccc3c(Br)c3sc4ccccc4c23)cc(C(C)C)c1OCC(=O)O    -61.04
32. Oc1ccc(-c2c3ccccc3cc3sc4ccccc4c23)cc1    -34.19
